# TARGET_DESC: Human Serum Albumin (HSA) (Homo sapiens)
# Construct: HSA (≥96%) and six PFAS were all purchased from Aladdin Chemicals (Shanghai, China); purchased Aladdin Chemicals (Shanghai, China)
# Sequence (P02768 25-609): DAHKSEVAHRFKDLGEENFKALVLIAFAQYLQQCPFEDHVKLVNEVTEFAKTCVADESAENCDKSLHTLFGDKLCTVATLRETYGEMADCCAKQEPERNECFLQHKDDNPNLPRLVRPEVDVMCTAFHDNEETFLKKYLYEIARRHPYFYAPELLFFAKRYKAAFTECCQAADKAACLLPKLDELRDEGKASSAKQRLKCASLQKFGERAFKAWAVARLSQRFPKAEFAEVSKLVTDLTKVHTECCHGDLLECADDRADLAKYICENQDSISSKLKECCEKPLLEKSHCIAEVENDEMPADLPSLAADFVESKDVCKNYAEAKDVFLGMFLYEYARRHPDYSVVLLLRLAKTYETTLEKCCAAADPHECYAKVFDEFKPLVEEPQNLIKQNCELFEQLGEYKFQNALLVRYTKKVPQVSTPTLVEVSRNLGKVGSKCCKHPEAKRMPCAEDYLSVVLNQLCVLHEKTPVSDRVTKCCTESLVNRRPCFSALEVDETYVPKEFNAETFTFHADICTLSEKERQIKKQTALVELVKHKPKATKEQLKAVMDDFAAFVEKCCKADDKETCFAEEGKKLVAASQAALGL
# ASSAY: Fluorescence quenching of HSA by PFAS (Stern–Volmer, double logarithmic and Van't Hoff analysis)
# Assay type: binding
# CONDITIONS: T = 310 K
The threshold is inclusive: ΔG of exactly -7 kcal/mol counts as condition met; values below receive condition not met.

{"COMPOUND": "O=C(O)C(F)(F)C(F)(F)C(F)(F)C(F)(F)C(F)(F)C(F)(F)C(=O)O [DFSA, Dodecafluorosuberic Acid]", "CATEGORY": "condition met"}

INPUT: Is ΔG at least -7 kcal/mol? Consider O=C(O)C(F)(F)C(F)(F)C(F)(F)C(F)(F)C(F)(F)C(F)(F)C(F)(F)F [PFOA, Perfluorooctanoic Acid]
OUTPUT: condition not met

INPUT: Try this compound too: O=C(O)C(F)(OC(F)(F)C(F)(OC(F)(F)C(F)(F)C(F)(F)F)C(F)(F)F)C(F)(F)F (stereo not drawn) [HFPO-TA]
OUTPUT: condition not met

INPUT: Another compound: O=C(O)C(F)(F)OC(F)(F)C(F)(F)OC(F)(F)C(F)(F)OC(F)(F)F [PFO3DA, Perfluoro-3,6,9-trioxadecanoic Acid]
OUTPUT: condition met

INPUT: Request: O=C(O)C(F)(F)C(F)(F)C(F)(F)C(F)(F)C(F)(F)C(F)(F)F [PFHpA, Perfluoroheptanoic Acid]
OUTPUT: condition not met
